# Inhibition values compiled below
Species: Rattus norvegicus
MEASUREMENT_NOTES: Inhibition of testoterone-induced prostate weight in castrated immature Sprague-Dawley rat at 2 mg/day relative to control
Type: functional, Prostate gland
# unit: % | format: bare number

Fc1cccc(Cn2c(CC(F)(F)F)nc3cc(Cl)c(Cl)cc32)c1 | 55
CC(O)(c1nc2cc(Cl)c(Cl)cc2n1CC#N)C(F)(F)F (configuration not stated) | 54
Cc1ccccc1Cn1c(CC(F)(F)F)nc2cc(Cl)c(Cl)cc21 | 73
CCOC(=O)c1ccc(Cn2c(CC(F)(F)F)nc3cc(Cl)c(Cl)cc32)cc1 | 56
COc1ccccc1Cn1c(CC(F)(F)F)nc2cc(Cl)c(Cl)cc21 | 51
O=C(Cn1c(CC(F)(F)F)nc2cc(Cl)c(Cl)cc21)c1ccc(Br)cc1 | 27
OC(O)(c1nc2cc(Cl)c(Cl)cc2[nH]1)C(F)(F)F | 94
Fc1ccc(OCCn2c(CC(F)(F)F)nc3cc(Cl)c(Cl)cc32)cc1 | 40
O=S(=O)(Cc1ccccc1Cn1c(CC(F)(F)F)nc2cc(Cl)c(Cl)cc21)c1ccccc1 | 74
FC(F)(F)Cc1nc2cc(Cl)c(Cl)cc2n1Cc1cccc(Cl)c1 | 35

Qu. Field request: Inhibition | item: FC(F)(F)Cc1nc2cc(Cl)c(Cl)cc2n1Cc1ccc(C(F)(F)F)cc1
Ans. 75

Qu. Next record, please: N#Cc1ccc(OCCn2c(CC(F)(F)F)nc3cc(Cl)c(Cl)cc32)cc1
Ans. 86

Qu. Next record, please: O=[N+]([O-])c1ccccc1Cn1c(CC(F)(F)F)nc2cc(Cl)c(Cl)cc21
Ans. 81

Qu. Next record, please: COCn1c(C(C)(O)C(F)(F)F)nc2cc(Cl)c(Cl)cc21 (configuration not stated)
Ans. 88

Qu. Next record, please: CCC(=O)Cn1c(CC(F)(F)F)nc2cc(Cl)c(Cl)cc21
Ans. 64

Qu. Next record, please: CS(=O)(=O)c1ccc(Cn2c(CC(F)(F)F)nc3cc(Cl)c(Cl)cc32)cc1
Ans. 32

Qu. Next record, please: FC(F)(F)Cc1nc2cc(Cl)c(Cl)cc2n1Cc1ccccn1
Ans. 89

Qu. Next record, please: FC(F)(F)Cc1nc2cc(Cl)c(Cl)cc2n1Cc1ccc(C(F)(F)F)cc1C(F)(F)F
Ans. 13

Qu. Next record, please: FC(F)(F)Cc1nc2cc(Cl)c(Cl)cc2n1Cc1ccc(OC(F)(F)F)cc1
Ans. 35

Qu. Next record, please: OC(c1nc2cc(Cl)c(Cl)cc2n1Cc1ccccn1)C(F)(F)F (configuration not stated)
Ans. 84

Qu. Next record, please: FC(F)(F)Cc1nc2cc(Cl)c(Cl)cc2n1Cc1ccccc1
Ans. 79

Qu. Next record, please: FC(F)(F)Cc1nc2cc(Cl)c(Cl)cc2n1Cc1cccc(C(F)(F)F)c1
Ans. 74

Qu. Next record, please: FC(F)(F)Cc1nc2cc(Cl)c(Cl)cc2n1Cc1ccc(Br)cc1
Ans. 75

----------
# Inhibition values compiled below
Species: Rattus norvegicus
MEASUREMENT_NOTES: Inhibition of testoterone-induced prostate weight in castrated immature Sprague-Dawley rat at 2 mg/day relative to control
Assay type: functional, Prostate gland
# unit: % | format: bare number

# annotated cases, reported Inhibition shown
FC(F)(F)Cc1nc2cc(Cl)c(Cl)cc2n1Cc1ccccc1-c1ccncc1 | 42
FC(F)(F)Cc1nc2cc(Cl)c(Cl)cc2n1Cc1ccccc1C(F)(F)F | 86
O=C(O)c1ccc(Cn2c(CC(F)(F)F)nc3cc(Cl)c(Cl)cc32)cc1 | 38
FC(F)(F)Cc1nc2cc(Cl)c(Cl)cc2n1Cc1cccc(OC(F)(F)F)c1 | 26

Lab note: next molecule to report on.
Qu. Field request: Inhibition | item: OCCn1c(CC(F)(F)F)nc2cc(Cl)c(Cl)cc21
Ans. 54

Where these numbers come from: ChEMBL document CHEMBL1146317
